Each item that follows carries a reported pIC50.
study_target: pseudo-kinase domain (JH2) of human V617F mutant JAK2 (Homo sapiens, UniProt O60674, F794H/V617F/W659A/W777A)
Construct: pseudo-kinase domain (JH2, amino-acids 536-812 with 3 surface mutations W659A, W777A, F794H); His (C)
Sequence (O60674 536-812 V617F/W659A/W777A/F794H): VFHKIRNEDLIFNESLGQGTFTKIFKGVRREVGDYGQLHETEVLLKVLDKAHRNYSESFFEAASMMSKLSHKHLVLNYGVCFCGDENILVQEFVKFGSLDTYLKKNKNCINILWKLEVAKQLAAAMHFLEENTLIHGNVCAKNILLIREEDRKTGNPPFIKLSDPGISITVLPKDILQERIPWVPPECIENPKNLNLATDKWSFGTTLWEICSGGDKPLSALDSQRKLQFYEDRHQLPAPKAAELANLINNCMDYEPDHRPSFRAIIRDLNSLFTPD
test_method_notes: JAK2 LanthaScreen JH2-V617F Binding Assay
measurement_parameters: 50 nM Fluorescent JAK2-JH2 Tracer, 1 hour at 25° C.
pIC50: −log10 of the molar value.
quantity_name: pIC50

substance_smiles=CN(C)S(=O)(=O)c1ccc(-c2[nH]c3nc(N)[nH]c(=O)c3c2-c2cccc3c2OCO3)cc1 quantity_name=pIC50 result="6.30 to 7.00"
substance_smiles=CN(C)S(=O)(=O)c1ccc(-c2[nH]c3nc(N)[nH]c(=O)c3c2-c2cccc(C(N)=O)c2)cc1 quantity_name=pIC50 result="5.60 to 6.00"
substance_smiles=CCc1c(-c2ccccc2)[nH]c2nc(N)[nH]c(=O)c12 quantity_name=pIC50 result="< 5.60"
substance_smiles=CN(C)S(=O)(=O)c1ccc(-c2[nH]c3nc(N)[nH]c(=O)c3c2-c2ccccc2CC#N)cc1 quantity_name=pIC50 result="< 5.60"
substance_smiles=CN(C)S(=O)(=O)c1ccc(-c2[nH]c3nc(N)[nH]c(=O)c3c2-c2cnn(Cc3ccncc3)c2)cc1 quantity_name=pIC50 result="5.60 to 6.00"
substance_smiles=CN(C)S(=O)(=O)c1ccc(-c2[nH]c3nc(N)[nH]c(=O)c3c2-c2ccc3c(c2)CCNC3=O)cc1 quantity_name=pIC50 result="6.30 to 7.00"
substance_smiles=CN(C)S(=O)(=O)c1ccc(-c2[nH]c3nc(N)[nH]c(=O)c3c2-c2cnn(Cc3cccc(C(=O)O)c3)c2)cc1 quantity_name=pIC50 result="6.00 to 6.30"
substance_smiles=CN(C)S(=O)(=O)c1ccc(-c2[nH]c3nc(N)[nH]c(=O)c3c2-c2cccc(C(=O)O)c2)cc1 quantity_name=pIC50 result="6.30 to 7.00"
substance_smiles=COc1ccc(C(F)(F)F)cc1-c1c(-c2ccc(S(=O)(=O)N(C)C)cc2)[nH]c2nc(N)[nH]c(=O)c12 quantity_name=pIC50 result="5.60 to 6.00"
substance_smiles=COc1ccccc1-c1c(-c2ccc(C(=O)N(C)C)cc2)[nH]c2nc(N)[nH]c(=O)c12 quantity_name=pIC50 result="6.00 to 6.30"
substance_smiles=CN(C)S(=O)(=O)c1ccc(-c2[nH]c3nc(N)[nH]c(=O)c3c2-c2cnn(Cc3ccccc3)c2)cc1 quantity_name=pIC50 result="< 5.60"
substance_smiles=CN(C)S(=O)(=O)c1ccc(-c2[nH]c3nc(N)[nH]c(=O)c3c2-c2cccc(C#N)c2)cc1 quantity_name=pIC50 result="6.00 to 6.30"
substance_smiles=CN(C)S(=O)(=O)c1ccc(-c2[nH]c3nc(N)[nH]c(=O)c3c2-c2cccc(CN)c2)cc1 quantity_name=pIC50 result="< 5.60"
substance_smiles=COc1ccccc1-c1c(-c2ccc(CN3CCC(S(C)(=O)=O)CC3)cc2)[nH]c2nc(N)[nH]c(=O)c12 quantity_name=pIC50 result="6.30 to 7.00"
substance_smiles=CN(C)S(=O)(=O)c1ccc(-c2[nH]c3nc(N)[nH]c(=O)c3c2-c2cccc3c2cnn3C)cc1 quantity_name=pIC50 result="< 5.60"
substance_smiles=COc1ccccc1-c1c(-c2ccc(S(=O)(=O)N(C)C)cc2)[nH]c2nc(N)[nH]c(=O)c12 quantity_name=pIC50 result="6.30 to 7.00"
substance_smiles=CN(C)S(=O)(=O)c1ccc(-c2[nH]c3nc(N)[nH]c(=O)c3c2-c2cnn(C3CCOCC3)c2)cc1 quantity_name=pIC50 result="5.60 to 6.00"
substance_smiles=COc1ccccc1-c1c(-c2cccc(S(C)(=O)=O)c2)[nH]c2nc(N)[nH]c(=O)c12 quantity_name=pIC50 result="< 5.60"
substance_smiles=CN(C)S(=O)(=O)c1ccc(-c2[nH]c3nc(N)[nH]c(=O)c3c2-c2cnn(Cc3ccc(C#N)cc3)c2)cc1 quantity_name=pIC50 result="5.60 to 6.00"
substance_smiles=CN(C)S(=O)(=O)c1ccc(-c2[nH]c3nc(N)[nH]c(=O)c3c2C2=CCCC2)cc1 quantity_name=pIC50 result="6.30 to 7.00"
substance_smiles=Cc1cccc(-c2c(-c3ccc(S(=O)(=O)N(C)C)cc3)[nH]c3nc(N)[nH]c(=O)c23)c1 quantity_name=pIC50 result="6.00 to 6.30"
substance_smiles=CN(C)S(=O)(=O)c1ccc(-c2[nH]c3nc(N)[nH]c(=O)c3c2-c2ccc(C(=O)O)cc2)cc1 quantity_name=pIC50 result="6.30 to 7.00"
substance_smiles=Nc1nc2[nH]c(-c3ccccc3)c(-c3ccccc3OC(F)F)c2c(=O)[nH]1 quantity_name=pIC50 result="< 5.60"
substance_smiles=CN(C)S(=O)(=O)c1ccc(-c2[nH]c3nc(N)[nH]c(=O)c3c2-c2ccccc2Cl)cc1 quantity_name=pIC50 result="5.60 to 6.00"
substance_smiles=CN(C)S(=O)(=O)c1ccc(-c2[nH]c3nc(N)[nH]c(=O)c3c2-c2cnn(Cc3ccc(C(=O)O)cc3)c2)cc1 quantity_name=pIC50 result="6.30 to 7.00"
substance_smiles=COc1nn(Cc2ccc(C(=O)O)cc2)cc1-c1c(-c2ccc(S(=O)(=O)N(C)C)cc2)[nH]c2nc(N)[nH]c(=O)c12 quantity_name=pIC50 result="≥ 7.00"
substance_smiles=CCOc1ccccc1-c1c(-c2ccc(S(=O)(=O)N(C)C)cc2)[nH]c2nc(N)[nH]c(=O)c12 quantity_name=pIC50 result="5.60 to 6.00"
substance_smiles=COc1ccccc1-c1c(-c2ccc(C(=O)N3CCOCC3)cc2)[nH]c2nc(N)[nH]c(=O)c12 quantity_name=pIC50 result="6.00 to 6.30"
substance_smiles=CN(C)S(=O)(=O)c1ccc(-c2[nH]c3nc(N)[nH]c(=O)c3c2-c2cccc3c2OC(F)(F)O3)cc1 quantity_name=pIC50 result="< 5.60"

* * *

study_target: catalytic domain (JH1) of human JAK2 (Homo sapiens)
Construct: catalytic domain (JH1, amino acids 826-1132) of human JAK2; FLAG (N)
test_method_notes: JAK2 LanthaScreen JH1 Binding Assay
measurement_parameters: 50 nM Fluorescent JAK2-JH1 Tracer, 2 hours at 25° C.
Each item that follows carries a reported IC50.
quantity_name: IC50

compound=COc1ccccc1-c1c(-c2ccc(S(=O)(=O)N(C)C)cc2)[nH]c2nc(N)[nH]c(=O)c12 result="> 2500 nM"
compound="CN(C)S(=O)(=O)c1ccc(-c2[nH]c3nc(N)[nH]c(=O)c3c2-c2cnn(C3CCS(=O)(=O)C3)c2)cc1 (stereo not shown)" result="1000 to 2500 nM"
compound=COc1c(Cl)cccc1-c1c(-c2ccc(S(=O)(=O)N(C)C)cc2)[nH]c2nc(N)[nH]c(=O)c12 result="> 2500 nM"
compound=CN(C)S(=O)(=O)c1ccc(-c2[nH]c3nc(N)[nH]c(=O)c3c2-c2ccc3c(c2)CCNC3=O)cc1 result="1000 to 2500 nM"
compound=Cc1ccc(F)c(-c2c(-c3ccc(S(=O)(=O)N(C)C)cc3)[nH]c3nc(N)[nH]c(=O)c23)c1 result="1000 to 2500 nM"
compound=CN(C)S(=O)(=O)c1ccc(-c2[nH]c3nc(N)[nH]c(=O)c3c2-c2cnn(C3CCOCC3)c2)cc1 result="> 2500 nM"
compound=COc1ccccc1-c1c(-c2ccc(C(=O)N(C)C)cc2)[nH]c2nc(N)[nH]c(=O)c12 result="> 2500 nM"

* * *

study_target: catalytic domain (JH1) of human JAK2 (Homo sapiens, UniProt O60674)
Construct: catalytic domain (JH1, amino acids 826-1132) of human JAK2; FLAG (N)
Sequence (O60674 826-1132): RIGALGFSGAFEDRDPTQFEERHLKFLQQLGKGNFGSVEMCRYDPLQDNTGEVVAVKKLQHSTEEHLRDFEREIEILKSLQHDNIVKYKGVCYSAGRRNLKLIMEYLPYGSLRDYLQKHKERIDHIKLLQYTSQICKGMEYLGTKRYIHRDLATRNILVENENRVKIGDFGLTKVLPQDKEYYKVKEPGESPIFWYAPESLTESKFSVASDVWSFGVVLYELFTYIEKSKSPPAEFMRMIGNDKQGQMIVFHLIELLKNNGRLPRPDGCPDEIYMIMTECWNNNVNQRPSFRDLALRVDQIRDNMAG
test_method_notes: JAK2 LanthaScreen JH1 Binding Assay
measurement_parameters: 50 nM Fluorescent JAK2-JH1 Tracer, 2 hours at 25° C.
pIC50: −log10 of the molar value.
quantity_name: pIC50

substance_smiles=CN(C)S(=O)(=O)c1ccc(-c2[nH]c3nc(N)[nH]c(=O)c3c2-c2cccc3c2OC(C)(C)C3)cc1 result="< 5.60"
substance_smiles=COc1ccc(C(F)(F)F)cc1-c1c(-c2ccc(S(=O)(=O)N(C)C)cc2)[nH]c2nc(N)[nH]c(=O)c12 result="< 5.60"
substance_smiles=Nc1nc2[nH]c(-c3ccccc3)c(-c3cccc(F)c3)c2c(=O)[nH]1 result="< 5.60"
substance_smiles=CN(C)S(=O)(=O)c1ccc(-c2[nH]c3nc(N)[nH]c(=O)c3c2-c2cccc(C#N)c2)cc1 result="6.30 to 7.00"
substance_smiles=CN1CCC(c2ccc(-c3c(-c4ccc(S(=O)(=O)N(C)C)cc4)[nH]c4nc(N)[nH]c(=O)c34)cc2)CC1 result="< 5.60"
substance_smiles=CN(C)S(=O)(=O)c1ccc(-c2[nH]c3nc(N)[nH]c(=O)c3c2-c2cccc(CO)c2)cc1 result="5.60 to 6.00"
substance_smiles=CN(C)S(=O)(=O)c1ccc(-c2[nH]c3nc(N)[nH]c(=O)c3c2-c2cnn(Cc3cccc(C(=O)O)c3)c2)cc1 result="5.60 to 6.00"
substance_smiles=CN(C)S(=O)(=O)c1ccc(-c2[nH]c3nc(N)[nH]c(=O)c3c2-c2ccc(C(=O)O)cc2)cc1 result="6.00 to 6.30"
substance_smiles=Nc1nc2[nH]c(-c3ccccc3)c(-c3ccccc3OC(F)F)c2c(=O)[nH]1 result="< 5.60"
substance_smiles=CN(C)S(=O)(=O)c1ccc(-c2[nH]c3nc(N)[nH]c(=O)c3c2-c2ccccc2CC#N)cc1 result="< 5.60"
substance_smiles=COc1ccccc1-c1c(-c2ccc(S(C)(=O)=O)cc2)[nH]c2nc(N)[nH]c(=O)c12 result="< 5.60"
substance_smiles=CC(C)c1cccc(-c2c(-c3ccc(S(=O)(=O)N(C)C)cc3)[nH]c3nc(N)[nH]c(=O)c23)c1 result="< 5.60"
